- Tested on: HT29 colon
- ASSAY_PROTOCOL: NCI-60 one-dose screen, 48 h
- ASSAY_CONTEXT: 10 µM unless noted
Compounds without any hit were thinned out: in the full panel of roughly 83,000, 20% have a hit. The source made the active and inactive calls. The calls were made as follows: active = growth percent below 10; inactive = the rest.
Pick one: active, inactive

Given `CN(C)CCOc1ccc(/C(=C(/CCCl)c2ccccc2)c2ccccc2)cc1` , state the outcome it received in this test.
active

Given `C#C[C@]1(O)CC[C@H]2[C@@H]3CC=C4c5nc(Nc6ccccn6)sc5CC[C@]4(C)[C@H]3CC[C@@]21C` , state the outcome it received in this test.
inactive

Given `C=C(C)[C@@H]1CC[C@]2(C(=O)OC)CC[C@]3(C)[C@H](CC[C@@H]4[C@@](C)(CCc5nn[nH]n5)[C@H](C(=C)C)CC[C@]43C)[C@@H]12` , state the outcome it received in this test.
active

Given `COc1cc2c(c(OC)c1OC)-c1cc(I)c(O)cc1[C@@H](NC(C)=O)CC2` , state the outcome it received in this test.
inactive

Given `C=C(C)[C@@H]1CC[C@]2(C(=O)NCCCCCCN(CCCN)CCCN)CC[C@]3(C)[C@H](CC[C@@H]4[C@@]5(C)CC[C@H](OCCCN)C(C)(C)[C@@H]5CC[C@]43C)[C@@H]12` , state the outcome it received in this test.
active

Given CCOC(=O)c1nn(C2CCCCO2)c2ccc(NC(=O)CN3CCCC3)cc12 (stereo not drawn) , state the outcome it received in this test.
inactive

Given `COCCCNc1nc(NC(=O)c2cc(OC)cc(OC)c2)cc(-c2cccnc2)n1` , state the outcome it received in this test.
inactive

Given `C=C(C)[C@@H]1CC[C@]2(C(=O)N3CCN(C)CC3)CC[C@]3(C)[C@H](CC[C@@H]4[C@@]5(C)C/C(=C/c6ccncc6)[C@H](O)C(C)(C)[C@@H]5CC[C@]43C)[C@@H]12` , state the outcome it received in this test.
active

* * *

- System: MDA-MB-231 breast
- ASSAY_PROTOCOL: NCI-60 one-dose screen, 48 h
- ASSAY_CONTEXT: 10 µM unless noted
This is part of a sample that, as a whole, favours compounds with a hit. Of some 83,000 tested, about 20% had one in any assay. Calls of active or inactive are those of the source. How the source made its calls: active means growth percent below 10; inactive means the rest.
Pick one: true (1) for active, false (0) for inactive

Given `COc1ccc2nc3cc(Cl)ccc3c(Nc3ccc(O)c(CN4CCCC4)c3)c2c1` , state the outcome it received in this test.
false (0)

Given `C=C(C)[C@@H]1CC[C@]2(C(=O)O)CC[C@]3(C)[C@H](CC[C@@H]4[C@@]5(C)C/C(=C/c6ccco6)C(=O)C(C)(C)[C@@H]5CC[C@]43C)[C@@H]12` , state the outcome it received in this test.
true (1)

Given COc1ccc2nc3c(cc2c1)C(=O)CC(c1ccccc1)C3 (stereo not given) , state the outcome it received in this test.
false (0)

Given `Cn1cc(-c2noc(-c3cn(C)c4ncc(F)cc34)n2)c2cc(Br)ccc21` , state the outcome it received in this test.
false (0)

Given `O=C(Nc1cc(F)cc2cccnc12)c1cnc(N2CCNCC2)cn1` , state the outcome it received in this test.
false (0)

Given N#Cc1ccc(-c2ccc(COc3ccc(CC4SC(=O)NC4=O)cc3)cc2)cc1 (stereo not given) , state the outcome it received in this test.
false (0)

Given `COc1ccc(N(c2nc(-c3ccc([N+](=O)[O-])cc3)cs2)C(C)C)cc1` , state the outcome it received in this test.
false (0)

Given `O=C(Nc1ccc(Oc2ccc(F)cc2)c(Cl)c1)c1cnccn1` , state the outcome it received in this test.
false (0)

Given `O=C(O)c1cc([N+](=O)[O-])ccc1Br` , state the outcome it received in this test.
false (0)

Given `CC(=O)n1cc(C=O)c2ccccc21` , state the outcome it received in this test.
false (0)

Reference for the values: PubChem BioAssay (NCI)
